- Tested on: SNU387-TgSALL4B
- Construct: SNU387 overexpressing SALL4B (FUW-Luc-mCh-puro)
- ASSAY REMARKS: cells
- Design: species or system SNU398 and SNU387 isogenic lines; CellTiter-Glo luminescence viability dose response in 384-well plates, nonlinear regression
- PARTICULARS: 72 h cell viability; read-out: EC50 / SNU387-TgSALL4BBHi
pEC50: −log10 of the molar value.
MEASURED QUANTITY: pEC50

# MOLECULE, OBSERVED RESULT
records = [
    ("COc1cc(Nc2ncccc2/C=C/C(=O)Nc2cc(Cl)c(Cl)cc2N)cc(OC)c1OC [SH7]", 6.52),
    ("COc1ccc(N)c(NC(=O)/C=C/c2cccnc2Nc2cc(OC)c(OC)c(OC)c2)c1 [SH2]", 6.40),
]
